Hey, just so you know, these numbers are from a melting point compilation (Tetko et al.; mined from patent text by program, amines drawn as free bases though some values may be those of a salt).

Could you please report measured melting point for the items listed next?

// melting point lookup, key: `Oc1ccc(C2CCOCC2)cc1`
164 °C

Try the compound `Clc1ccc(-c2coc(CCCI)n2)cc1`
49 to 50 °C

Try the compound `O=C1C(=Cc2ccc(Cl)cc2)Cc2ccccc21`
174 to 179 °C

Try the compound C=CCC(C(=O)N1C(=O)OCC1Cc1ccccc1)c1ccc(F)cc1 (stereo not given)
103 to 104 °C

Try the compound `Cc1nc2cccc(OCC(C)(C)C(=O)NCC(C)C)c2c(N)c1C(=O)O`
176 to 179 °C

Try the compound O=C1N(Cc2ccccn2)c2cccc(Br)c2C12COc1cc3c(cc12)CCO3 (stereo not given)
> 200 °C

Try the compound CC(C)(C)[Si](C)(C)OC(CCCOC1CCCCO1)COc1ccc2c(=O)cc(-c3ccccc3)oc2c1 (stereo not given)
138 to 145 °C

Try the compound `O=C(NNS(=O)(=O)c1ccccc1)c1ccc2c(c1)OCO2`
156 to 158 °C

Try the compound `Cn1c(=O)ccc2cc(COc3cc(F)cc(C4CCOCC4)c3)ccc21`
126 to 127 °C

Try the compound CC(C)C1NCC(=O)N1CC(=O)NCC(N)=O (stereo not given)
65 to 70 °C

Try the compound `CS(=O)(=O)Nc1ccc(C(N)=O)cc1Sc1ccc(F)cc1F`
176 to 178 °C

Try the compound `COc1cc2c(CCNC(C)=O)cn(C(C)=O)c2cc1Cl`
178 to 181 °C

Try the compound `Cn1ncc2c(C(F)F)cc(Cl)nc21`
105 °C

Try the compound NC(C(=O)O)c1ccc(C(=O)O)c(O)c1CCCc1ccccc1 (stereo not given)
> 250 °C

Try the compound `Cc1nc2c3c(c(C(=O)N(C)C)cc2[nH]1)CCC1(Cc2ccccc2C1)N3`
183 °C

Try the compound `Cc1cccc(C2=C(c3ccc(S(C)(=O)=O)cc3)OC3(CCCCC3)C2=O)c1`
154 to 155 °C

Try the compound O=C1c2ccc([N+](=O)[O-])cc2C(=O)N1CC(=O)N1c2ccccc2N(Cc2ccccc2)C(=O)[C@H]2CCC[C@H]21 (relative stereo)
196 to 198 °C

Try the compound `CCCCOc1cc2c(Nc3cc(OC)c(Cl)cc3Cl)c(C#N)cnc2cc1OCCOC`
166 to 167 °C

Try the compound `CCOCc1cc(N)ccc1N1C(=O)c2ccc(Cl)cc2C1=O`
154 to 156 °C

Try the compound CNC1=NS(=O)N=C1NCCSCc1csc(NC(=N)N)n1 (stereo not given)
175 to 177 °C

----------
assay endpoint: melting point

// melting point lookup, key: CCCCCN1C(=O)C2CC2(c2ccc(N)cc2)C1=O (stereo unspecified)
113 to 115 °C

Try the molecule `CCOC(=O)C=Cc1ccc(OC)c2c1CC1(CCCC1)O2`
81 to 91 °C

Try the molecule `CCO[C@@H]1c2ccc3c(nc(C)n3C)c2O[C@H](c2ccccc2)[C@H]1OC(=O)C(C)(C)C`
164 °C

Try the molecule CCc1ccc(C2CCCN2S(=O)(=O)c2ccc(C)cc2)cc1 (racemic)
92 °C

Try the molecule `O=C(CCc1oc(-n2cncn2)nc1-c1ccc(Cl)cc1)NCCCl`
157 to 158 °C

Try the molecule `Nc1nc2ccccc2c2c1ncn2CCCCNC(=O)c1cccc2cccnc12`
91 to 93 °C

Try the molecule `Cc1nn(-c2ccccc2)c(=O)c2c1c1c(Br)cccc1n2C`
189 to 190 °C

Try the molecule `N=C(N)Nc1ccc(S(=O)(=O)N2CCOCC2)cc1`
102 to 105 °C

Try the molecule CC(CSc1nc(-c2ccc(F)cc2)c(-c2ccc(F)cc2)[nH]1)Sc1nc(-c2ccc(F)cc2)c(-c2ccc(F)cc2)[nH]1 (stereo unspecified)
243 to 245 °C

Try the molecule `O=C(Nc1ccccc1N1CCc2ccccc21)C1CCC1`
81 to 83.5 °C

Try the molecule `O=C1Cc2ccccc2N1CC(F)(F)F`
155 to 162 °C

----------
assay endpoint: melting point

// melting point lookup, key: `COc1cc(Cl)c(N=C=S)cc1C(=O)Nc1c(C)cccc1C`
191 to 192 °C

Try the molecule `O=C1CCc2ncc3cc(F)ccc3c2N1`
266 to 267 °C

Try the molecule `O=S1(=O)CS(=O)(=O)OCCO1`
176 to 180 °C

Try the molecule `COc1ccc2cc(C(C)=CC(C)=O)cc(F)c2c1`
126 to 127 °C

Try the molecule `CCn1c(=O)cc(C)c2ccc(OCCCN3CCC(NC(=O)c4ccccc4)CC3)cc21`
164 to 165 °C

Try the molecule `CCOC(=O)c1c(C)nc2c(c1N)c1ccccc1n2C`
79 to 80 °C

Try the molecule `CN1CCC(=C2c3ccccc3CCc3sc(Br)cc32)CC1`
141 to 142 °C

Try the molecule CCC(Oc1ccc(C2CCOCC2)cc1)C(=O)O (stereo not given)
127 °C

Try the molecule CC(=O)NCC1CNC(=O)O1 (stereo not given)
138 °C

Try the molecule `O=C(O)c1cnn2c(C(F)(F)F)cc(-c3cccc(C(F)(F)F)c3)nc12`
212 °C

----------
Could you please report measured melting point for the items listed next?

// melting point lookup, key: `O=C(NCCCn1cncn1)c1ccc(I)cc1`
132 to 134 °C

Try the compound `COC(=O)c1cccnc1C(=O)c1ccc(-n2ccnc2)cc1`
171 to 174 °C

Try the compound `N#Cc1cc(Br)cc(CO)c1`
108 to 109 °C

Try the compound `Cc1ccccc1SCc1c(CCN(C)C)[nH]c2ccccc12`
134 to 137 °C

Try the compound `Nc1ncnc2c1ncn2COCCO`
200 °C

Try the compound `CC(C)n1nc(-c2cnc(N)nc2-c2ccc(Cl)cc2)ccc1=O`
195 °C

Try the compound COC(=O)C1=C(C)Nc2ccnn2C1c1ccccc1C(F)(F)F (stereo unspecified)
209 to 210 °C

Try the compound `CCCOc1ccc(S(=O)(=O)N2CCC(C(=O)OCC)CC2)cc1-c1nc2cc(N)c(N)cc2c(=O)[nH]1`
197 to 199 °C

Try the compound `N#Cc1ccc2nc(C(F)(F)F)[nH]c2c1`
194 to 196 °C

Try the compound `CCN(Cc1cccs1)C(=O)C12CC3CC(CC(C3)C1)C2`
103 to 105 °C

Try the compound `O=C(Nc1c[nH]nc1C(=O)NCc1ccc(-c2ccccc2)cc1)c1ccccn1`
227 to 228 °C

Try the compound `CCCCCCCCC#CCC#CCC#CCCCC(=O)Nc1ccc(O)cc1`
121 °C

Try the compound `CC1(C)Cc2sccc2C(=O)N1`
153 to 154 °C

Try the compound Cc1c[nH]c(-c2ccc(OCC(O)CNC(C)(C)C)cc2)n1 (stereo unspecified)
202 to 203 °C

Try the compound `N#Cc1ccc(OCCCn2ccnc2)cc1`
60 to 61.5 °C

Try the compound COC1(N)C=CC(C(=O)c2cnc(Nc3ccccc3)s2)=CC1 (stereo unspecified)
222 °C

----------
Could you please report measured melting point for the items listed next?

// melting point lookup, key: CCOC(=O)C(C#N)(CCBr)c1cc(OC)c(OC)c(OC)c1 (centres undefined)
76 to 77 °C

Try the compound `CCCCCc1ccc(-c2ccc(C(C)=O)cc2)cc1`
81 to 82 °C

Try the compound O=C(O)CCC(CCCCNS(=O)(=O)c1ccc(Cl)cc1)CCCn1ccnc1 (centres undefined)
136 to 138 °C

Try the compound `CC(C)(C)C(=O)OCn1nc2ccc(OCCCN3CCC(OC(c4ccccc4)c4ccccc4)CC3)nn2c1=O`
108 to 110 °C

Try the compound `CN1c2ccccc2NC(=O)c2cccnc21`
235 to 237 °C

Try the compound CCC(OC)(c1cccc(OCc2cc3ccccc3n(C)c2=O)c1)c1nccs1 (centres undefined)
123 to 125 °C

Try the compound `CCCCCCCCCCCCCCOc1ccc(C(=O)OCC)o1`
39 to 40 °C

Try the compound CC(=O)NC(CCCCN)C(=O)C(N)C(CC1(C(=O)NC2CCC(C(=O)O)CC2)CCCC1)C(=O)O (centres undefined)
161 to 163 °C

Try the compound Cc1c(C)c2c(c(C)c1NCc1cccs1)C(c1ccc(C(C)C)cc1)C(C)(C)O2 (centres undefined)
101 to 103 °C

----------
Could you please report measured melting point for the items listed next?

// melting point lookup, key: C=C1CC2C(CCC3(C)C2CCC3(OC(=O)CCCCC)C(C)=O)C2(COC(C)=O)CCC(=O)C=C12 (centres undefined)
111 to 112 °C

Try the molecule `CN1CC(C(=O)N(C)Cc2ccc(C(F)(F)F)cc2)=C(O)C1=O`
126 to 128 °C

Try the molecule `CCOC(=O)C(C)(C)OCc1cc2cc(C(F)(F)F)ccc2n1S(=O)(=O)c1ccccc1`
62 to 64 °C

Try the molecule CCCC1=C(C#N)C(c2cccc3c2OCCC3)c2c[nH]nc2N1 (centres undefined)
230 °C

Try the molecule `CS(=O)(=O)Oc1ccc(-c2sc3cc(OS(C)(=O)=O)ccc3c2C(=O)c2ccc(OCCBr)cc2)cc1`
105 to 107 °C

Try the molecule CCOP(=O)(OCC)C(C)NC(=O)c1cc(C)cc(OC)c1C1=CC(=O)c2c(O)cccc2C1=O (centres undefined)
130 to 132 °C

Try the molecule `CNC(=O)c1ccc(C)c(-c2nc(S(C)(=O)=O)nc3c2CNC(=O)N3c2c(F)cccc2F)c1`
275 to 278 °C

Try the molecule `CC1(C(=O)c2c[nH]c3ncc(-c4ccc(N5CCOCC5)cc4)nc23)CCCCC1`
233 to 235 °C

Try the molecule COC(=O)c1ccc(OCCNC(=O)C2Cc3ccccc3N2S(=O)(=O)c2ccc(-c3cc(C(F)(F)F)ccc3Cl)cc2)cc1F (centres undefined)
84 to 85 °C
